TARGET DESC: JAK3 (Homo sapiens, UniProt P52333)
Construct: All four purified enzymes contain only the catalytic domain; His (N)
Sequence (P52333 822-1111 limits assumed): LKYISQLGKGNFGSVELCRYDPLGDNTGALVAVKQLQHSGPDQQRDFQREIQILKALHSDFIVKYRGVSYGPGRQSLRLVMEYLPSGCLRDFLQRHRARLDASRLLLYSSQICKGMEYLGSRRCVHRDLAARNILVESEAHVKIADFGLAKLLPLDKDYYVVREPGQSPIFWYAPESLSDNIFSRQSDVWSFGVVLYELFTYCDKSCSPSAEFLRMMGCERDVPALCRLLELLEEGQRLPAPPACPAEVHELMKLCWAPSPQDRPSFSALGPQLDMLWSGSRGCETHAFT
EXPERIMENT: JAK kinase assay (HTRF, phosphorylation of synthetic peptide), JAK3
REPORTED CONDITIONS: catalytic domain, ATP at Km (2 μM); read-out: JAK3 kinase inhibitory activity (EC50)
pEC50: −log10 of the molar value.
I'd appreciate it if you could supply pEC50 values for the items below.

CN(C[C@H]1CCCN1C(=O)CCC#N)S(=O)(=O)N1CCN(c2ncnc3[nH]ccc23)CC12CC2 yielded pEC50 of 6.30 to 7.00

For record CN(C(=O)CCC(F)(F)F)S(=O)(=O)N1CCN(c2ncnc3[nH]ccc23)CC12CC2 the listed pEC50 is 6.30 to 7.00

Item: CN(C1CNC1)S(=O)(=O)N1CCN(c2ncnc3[nH]ccc23)CC12CC2 | pEC50: 6.30 to 7.00

For reference, reported pEC50 for CN(CC1CCN(S(C)(=O)=O)CC1)S(=O)(=O)N1CCN(c2ncnc3[nH]ccc23)CC12CC2 stands at > 7.00

Looking up CN(Cc1ccc(S(C)(=O)=O)cc1)S(=O)(=O)N1CCN(c2ncnc3[nH]ccc23)CC12CC2 , I see its pEC50 listed as > 7.00

pEC50 in this record for N#CC1CCCN(S(=O)(=O)N2CCN(c3ncnc4[nH]ccc34)CC23CC3)C1 (centres unmarked) : 6.30 to 7.00

The reported value for CN(C(=O)CCC1CCS(=O)(=O)C1)S(=O)(=O)N1CCN(c2ncnc3[nH]ccc23)CC12CC2 (centres unmarked) in terms of pEC50 is 6.30 to 7.00

O=S1(=O)CCC(CNS(=O)(=O)N2CCN(c3ncnc4[nH]ccc34)CC23CC3)CC1 has a reported pEC50 of > 7.00

The recorded pEC50 for entry CN(CCc1ccccc1)S(=O)(=O)N1CCN(c2ncnc3[nH]ccc23)CC12CC2 equals > 7.00

Reported pEC50 for CN(CC1CCCS(=O)(=O)C1)S(=O)(=O)N1CCN(c2ncnc3[nH]ccc23)CC12CC2 (centres unmarked) was > 7.00

pEC50 recorded for this compound, CN(C(=O)C1CCCC1)S(=O)(=O)N1CCN(c2ncnc3[nH]ccc23)CC12CC2 , is 6.30 to 7.00

The compound N#CCCCN(C1CCC1)S(=O)(=O)N1CCN(c2ncnc3[nH]ccc23)CC12CC2 showed pEC50 equal to > 7.00

compound O=S(=O)(N(CCc1ccccc1)CC1CCCCO1)N1CCN(c2ncnc3[nH]ccc23)CC12CC2 (centres unmarked) , pEC50 observed: 6.30 to 7.00

So for CN(C[C@H]1CCCN1C(=O)CCO)S(=O)(=O)N1CCN(c2ncnc3[nH]ccc23)CC12CC2 , the logged pEC50 turned out to be 6.30 to 7.00

Input O=S(=O)(NC1CCCC1)N1CCN(c2ncnc3[nH]ccc23)CC12CC2 . Output pEC50: 6.30 to 7.00

In plain terms, N#CCCCN(C1COC1)S(=O)(=O)N1CCN(c2ncnc3[nH]ccc23)CC12CC2 has a documented pEC50 of > 7.00

Recorded result, CN(OCc1ccccc1)S(=O)(=O)N1CCN(c2ncnc3[nH]ccc23)CC12CC2 , pEC50: 6.30 to 7.00

Please fill in: pEC50 reported for CN(CC1CCN(S(=O)(=O)CCCC#N)CC1)S(=O)(=O)N1CCN(c2ncnc3[nH]ccc23)CC12CC2 = > 7.00

Value of pEC50 reported for the compound N#CC1CCN(S(=O)(=O)N2CCN(c3ncnc4[nH]ccc34)CC23CC3)CC1 is 6.30 to 7.00

For reference, reported pEC50 for CN(C[C@@H]1CCCN1C(=O)CCO)S(=O)(=O)N1CCN(c2ncnc3[nH]ccc23)CC12CC2 stands at > 7.00

Reported pEC50 for CN(CC1CCC(C(C)(C)C)CC1)S(=O)(=O)N1CCN(c2ncnc3[nH]ccc23)CC12CC2 (centres unmarked) was < 6.30

Briefly, pEC50 measured for CN(C)CCCN(C1CCC1)S(=O)(=O)N1CCN(c2ncnc3[nH]ccc23)CC12CC2 : < 6.30

Lab note: measured pEC50 of Cc1cc(CN(C)S(=O)(=O)N2CCN(c3ncnc4[nH]ccc34)CC23CC3)on1 was > 7.00

Query N#CCCCNS(=O)(=O)N1CCN(c2ncnc3[nH]ccc23)CC12CC2 yields pEC50 of > 7.00

The compound N#CCN(CC1CCS(=O)(=O)CC1)S(=O)(=O)N1CCN(c2ncnc3[nH]ccc23)CC12CC2 showed pEC50 equal to > 7.00

pEC50 in this record for O=S(=O)(NCC1CCC(F)(F)CC1)N1CCN(c2ncnc3[nH]ccc23)CC12CC2 : > 7.00

Memo: NS(=O)(=O)N1CCN(c2ncnc3[nH]ccc23)CC12CC2 , reported pEC50: > 7.00

Reported pEC50 of CN(Cc1cccc(C#N)c1)S(=O)(=O)N1CCN(c2ncnc3[nH]ccc23)CC12CC2 : > 7.00

The measured pEC50 associated with CC(C)N(CC#N)S(=O)(=O)N1CCN(c2ncnc3[nH]ccc23)CC12CC2 reads 6.30 to 7.00

Input O=S(=O)(NCCO)N1CCN(c2ncnc3[nH]ccc23)CC12CC2 . Output pEC50: > 7.00

Sure, the documented pEC50 for O=S(=O)(N(CCO)C1COC1)N1CCN(c2ncnc3[nH]ccc23)CC12CC2 is 6.30 to 7.00

Just so you know, measured pEC50 for CN(CC1CC(F)(F)C1)S(=O)(=O)N1CCN(c2ncnc3[nH]ccc23)CC12CC2 came out at > 7.00
